target: Protein kinase C alpha type (Homo sapiens)
pKi: −log10 of the molar value.
measured_parameter: pKi

A selection of reference data follows.
Given item CCCCCCCCCCC[C@@H]1C(=O)O[C@]2(CO)COC(=O)[C@H]12 , the value recorded as its pKi is 5.11

Given item CCCCCCCCCCC/C=C1/C(=O)O[C@@H](CO)[C@@]12CCC(=O)O2 , the value recorded as its pKi is 4.87

Given item CO[C@@H](CC[C@H](C)[C@H]1O[C@@]23CC(OC(=O)C[C@H]([C@@H](C)O)OC(=O)C[C@](O)(O2)[C@H](C)CC3(C)C)[C@@H]1C)c1cccc(O)c1 , the value recorded as its pKi is 7.70

Given item CCCCCCCCCCCCCC(=O)OC[C@H](CO)OC(C)=O , the value recorded as its pKi is 5.89

Given item CCCCCCCCCCC(=O)O[C@@H]1CC(=O)O[C@H]1CO , the value recorded as its pKi is 5.39

1: CCCCCCCCCCCCCCCCCCC(=O)O[C@@H]1CC(=O)O[C@H]1CO
2: CCCCCCC(=O)O[C@@H]1CC(=O)O[C@H]1CO
// query Hey, which is lower on measured pKi, 1 or 2 ? Identify your selection by its label.
// result 2
